Origin of measurements: paper PMC7076352

For each entry below, report its Cmax value.
test name: in vivo
Parameters: species or system Sprague-Dawley (SD) rats
condition set: Sprague-Dawley, rat, plasma, po, 60 mg/kg
Method: At each time, 0.5 mL of blood was collected in the heparin sodium tubes. Plasma was separated by centrifugation at 4000 rpm for 10 min and stored below −80 °C until bioanalysis. Oasis PRiME HLB SPE cartridges (1 cc/30 mg, Waters, Milford, MA, USA) were used to process the plasma samples (Supplementary Materials). […]
Answer format: number, then unit.

CC(C)=CCC[C@](C)(O[C@@H]1O[C@H](CO[C@@H]2O[C@H](CO)[C@@H](O)[C@H](O)[C@H]2O)[C@@H](O)[C@H](O)[C@H]1O)[C@H]1CC[C@]2(C)[C@@H]1[C@H](O)C[C@@H]1[C@@]3(C)CC[C@H](O[C@@H]4O[C@H](CO)[C@@H](O)[C@H](O)[C@H]4O[C@@H]4O[C@H](CO)[C@@H](O)[C@H](O)[C@H]4O)C(C)(C)[C@@H]3CC[C@]12C [GRb1, ginsenoside Rb1]    113 ng/mL

Answer for every listed entry: what is its Cmax? The entries follow.
1. CC(C)=CCC[C@](C)(O[C@@H]1O[C@H](CO)[C@@H](O)[C@H](O)[C@H]1O)[C@H]1CC[C@]2(C)[C@@H]1[C@H](O)C[C@@H]1[C@@]3(C)CC[C@H](O[C@@H]4O[C@H](CO)[C@@H](O)[C@H](O)[C@H]4O[C@@H]4O[C@H](CO)[C@@H](O)[C@H](O)[C@H]4O)C(C)(C)[C@@H]3CC[C@]12C [GRd, ginsenoside Rd]
2. CC(C)=CCC[C@](C)(O[C@@H]1O[C@H](CO)[C@@H](O)[C@H](O)[C@H]1O)[C@H]1CC[C@]2(C)[C@@H]1[C@H](O)C[C@@H]1[C@@]3(C)CC[C@H](O)C(C)(C)[C@@H]3[C@@H](O[C@@H]3O[C@H](CO)[C@@H](O)[C@H](O)[C@H]3O[C@@H]3O[C@@H](C)[C@H](O)[C@@H](O)[C@H]3O)C[C@]12C [GRe, ginsenoside Re]
3. CC(C)=CCC[C@](C)(O[C@@H]1O[C@H](CO)[C@@H](O)[C@H](O)[C@H]1O)[C@H]1CC[C@]2(C)[C@@H]1[C@H](O)C[C@@H]1[C@@]3(C)CC[C@H](O)C(C)(C)[C@@H]3[C@@H](O[C@@H]3O[C@H](CO)[C@@H](O)[C@H](O)[C@H]3O)C[C@]12C [GRg1, ginsenoside Rg1]

[out]
1. 29.4 ng/mL
2. 0.29 ng/mL
3. 0.78 ng/mL

----------
Tested on: CYP2C9
test name: In vitro cocktail CYP450 activity assay in rat liver microsomes, CYP2C9 (tolbutamide probe)
condition set: Sprague-Dawley, rat, pooled rat liver microsomes, pH 7.4, probe tolbutamide (18 µM, in seven-probe cocktail), IC50 CYP2C9, single components; RLM 0.2 mg/mL, 15 min, triplicate, mean ± SD
IC50 at 15 min less than 20 µM is 1 (yes); IC50 at 15 min greater than or equal to 20 µM is 0 (no).

Illustrative cases are given below, each with its answer.
CC(C)=CCC[C@](C)(O[C@@H]1O[C@H](CO)[C@@H](O)[C@H](O)[C@H]1O)[C@H]1CC[C@]2(C)[C@@H]1[C@H](O)C[C@@H]1[C@@]3(C)CC[C@H](O)C(C)(C)[C@@H]3[C@@H](O[C@@H]3O[C@H](CO)[C@@H](O)[C@H](O)[C@H]3O[C@@H]3O[C@@H](C)[C@H](O)[C@@H](O)[C@H]3O)C[C@]12C [GRe, ginsenoside Re]    0 (no)
CC(C)=CCC[C@](C)(O[C@@H]1O[C@H](CO)[C@@H](O)[C@H](O)[C@H]1O)[C@H]1CC[C@]2(C)[C@@H]1[C@H](O)C[C@@H]1[C@@]3(C)CC[C@H](O)C(C)(C)[C@@H]3[C@@H](O[C@@H]3O[C@H](CO)[C@@H](O)[C@H](O)[C@H]3O)C[C@]12C [GRg1, ginsenoside Rg1]    0 (no)

[in] # strict comparison: is reported IC50 at 15 min < 20 µM? input = CC(C)=CCC[C@](C)(O[C@@H]1O[C@H](CO)[C@@H](O)[C@H](O)[C@H]1O)[C@H]1CC[C@]2(C)[C@@H]1[C@H](O)C[C@@H]1[C@@]3(C)CC[C@H](O)C(C)(C)[C@@H]3[C@@H](O[C@@H]3O[C@H](CO)[C@@H](O)[C@H](O)[C@H]3O[C@@H]3OC[C@@H](O)[C@H](O)[C@H]3O)C[C@]12C [NGR1, notoginsenoside R1]
[out] 0 (no)

[in] # strict comparison: is reported IC50 at 15 min < 20 µM? input = CC(C)=CCC[C@](C)(O[C@@H]1O[C@H](CO)[C@@H](O)[C@H](O)[C@H]1O)[C@H]1CC[C@]2(C)[C@@H]1[C@H](O)C[C@@H]1[C@@]3(C)CC[C@H](O[C@@H]4O[C@H](CO)[C@@H](O)[C@H](O)[C@H]4O[C@@H]4O[C@H](CO)[C@@H](O)[C@H](O)[C@H]4O)C(C)(C)[C@@H]3CC[C@]12C [GRd, ginsenoside Rd]
[out] 0 (no)

[in] # strict comparison: is reported IC50 at 15 min < 20 µM? input = CC(C)=CCC[C@](C)(O[C@@H]1O[C@H](CO[C@@H]2O[C@H](CO)[C@@H](O)[C@H](O)[C@H]2O)[C@@H](O)[C@H](O)[C@H]1O)[C@H]1CC[C@]2(C)[C@@H]1[C@H](O)C[C@@H]1[C@@]3(C)CC[C@H](O[C@@H]4O[C@H](CO)[C@@H](O)[C@H](O)[C@H]4O[C@@H]4O[C@H](CO)[C@@H](O)[C@H](O)[C@H]4O)C(C)(C)[C@@H]3CC[C@]12C [GRb1, ginsenoside Rb1]
[out] 1 (yes)

[in] # strict comparison: is reported IC50 at 15 min < 20 µM? input = O=c1c(O)c(-c2ccc(O)cc2)oc2cc(O)cc(O)c12
[out] 1 (yes)
